Property: pEC50; scope: individual compounds
# test_system: UniProt O75460
# Sequence (O75460 19-977): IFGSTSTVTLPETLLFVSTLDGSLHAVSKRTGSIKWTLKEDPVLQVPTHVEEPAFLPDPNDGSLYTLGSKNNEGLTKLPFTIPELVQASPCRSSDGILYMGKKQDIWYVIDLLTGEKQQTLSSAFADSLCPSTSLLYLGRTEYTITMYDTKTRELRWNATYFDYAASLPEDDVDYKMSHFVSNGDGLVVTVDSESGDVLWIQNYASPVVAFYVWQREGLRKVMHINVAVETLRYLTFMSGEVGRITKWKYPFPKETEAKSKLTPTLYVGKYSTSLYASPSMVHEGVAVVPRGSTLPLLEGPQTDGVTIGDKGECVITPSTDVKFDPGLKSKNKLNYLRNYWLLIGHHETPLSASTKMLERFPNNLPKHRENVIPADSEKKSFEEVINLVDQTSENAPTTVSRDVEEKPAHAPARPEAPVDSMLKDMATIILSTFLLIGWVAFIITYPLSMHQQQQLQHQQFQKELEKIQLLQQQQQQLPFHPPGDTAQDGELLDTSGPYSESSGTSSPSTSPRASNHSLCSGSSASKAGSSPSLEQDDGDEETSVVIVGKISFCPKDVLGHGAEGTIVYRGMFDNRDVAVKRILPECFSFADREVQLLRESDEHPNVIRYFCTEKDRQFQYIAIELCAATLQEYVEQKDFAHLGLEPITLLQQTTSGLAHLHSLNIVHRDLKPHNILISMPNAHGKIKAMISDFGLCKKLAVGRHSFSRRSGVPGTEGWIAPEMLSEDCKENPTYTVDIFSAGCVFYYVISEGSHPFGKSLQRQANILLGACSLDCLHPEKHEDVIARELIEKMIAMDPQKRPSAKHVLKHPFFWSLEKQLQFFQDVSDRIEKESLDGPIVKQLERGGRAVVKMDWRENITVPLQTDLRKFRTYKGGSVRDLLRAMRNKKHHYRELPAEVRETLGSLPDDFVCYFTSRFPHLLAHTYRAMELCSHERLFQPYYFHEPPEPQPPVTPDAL
# assay_remarks: Cellular EC50: endogenous XBP-1 splicing in myeloma cells (MM.1s, DTT stress, RT-PCR)
# experimental_context: average cellular EC50, XBP-1 splicing in myeloma cells
pEC50: −log10 of the molar value.

compound: COCCOc1cc2c(C)c(CCC(=O)N3CCOCC3)c(=O)oc2c(C=O)c1O
test_system: UniProt O75460
pEC50: > 5.00
//
compound: CC(C(=O)N1CCOCC1)c1nc2c(C=O)c(O)ccc2o1 (stereo not shown)
test_system: UniProt O75460
pEC50: < 5.00
//
compound: COc1cc2c(=O)c(CC(=O)N3CCN(C)CC3)c(C)oc2c(C=O)c1O
test_system: UniProt O75460
pEC50: < 5.00
//
compound: COCCOc1cc2c(C)c(CC(=O)N3CCOCC3)c(=O)oc2c(C=O)c1O
test_system: UniProt O75460
pEC50: > 5.00
//
compound: COc1cc(O)c(C=O)c2oc(=O)c(CC(=O)N3CCOCC3)c(C)c12
test_system: UniProt O75460
pEC50: > 5.00
//
compound: C=CCc1c(C)c2c(OC)cc(O)c(C=O)c2oc1=O
test_system: UniProt O75460
pEC50: > 5.00
//
compound: COc1cc2c(=O)c(CC(=O)N3CCOCC3)c(C)oc2c(C=O)c1O
test_system: UniProt O75460
pEC50: < 5.00
//
compound: CCNC(=O)Cc1c(C)c2c(OCCOC)cc(O)c(C=O)c2oc1=O
test_system: UniProt O75460
pEC50: > 5.00
//
compound: COCCOc1cc(O)c(C=O)c2oc(=O)c(CC(=O)N3CCOCC3)c(C)c12
test_system: UniProt O75460
pEC50: > 5.00
//
compound: COCCc1c(C)c2cc(OC)c(O)c(C=O)c2oc1=O
test_system: UniProt O75460
pEC50: > 5.00
//
compound: COCCOc1cc2c(C)c(CCC(=O)N3CCN(C)CC3)c(=O)oc2c(C=O)c1O
test_system: UniProt O75460
pEC50: > 5.00
//
compound: CN1CCN(C(=O)CCc2nc3ccc(O)c(C=O)c3n2C)CC1
test_system: UniProt O75460
pEC50: < 5.00
//
compound: COc1cc(O)c(C=O)c2oc(=O)c(CCC(=O)NCCN(C)C)c(C)c12
test_system: UniProt O75460
pEC50: > 5.00
//
compound: COCCNC(=O)Cc1c(C)c2cc(OCCOC)c(O)c(C=O)c2oc1=O
test_system: UniProt O75460
pEC50: > 5.00
//
compound: COc1cc2c(=O)c(CCC(=O)NCCN(C)C)c(C)oc2c(C=O)c1O
test_system: UniProt O75460
pEC50: < 5.00
//
compound: COCCOc1cc(O)c(C=O)c2oc(=O)cc(C)c12
test_system: UniProt O75460
pEC50: > 5.00
//
compound: COc1cc2c(C)c(-c3ccc(N4CCN(C)CC4)nc3)c(=O)oc2c(C=O)c1O
test_system: UniProt O75460
pEC50: > 5.00
//
compound: O=Cc1c(O)ccc2sc(CC(=O)O)cc12
test_system: UniProt O75460
pEC50: < 5.00
//
compound: COCCNC(=O)Cc1c(C)oc2c(C=O)c(O)cc(OC)c2c1=O
test_system: UniProt O75460
pEC50: > 5.00
